target.of.assay: T1, rat IL-25 expressed with a C-terminal myc-myc-hexahistidine tag (rat)
T1 construct: also called Rat IL-25-MMH
T1 chain: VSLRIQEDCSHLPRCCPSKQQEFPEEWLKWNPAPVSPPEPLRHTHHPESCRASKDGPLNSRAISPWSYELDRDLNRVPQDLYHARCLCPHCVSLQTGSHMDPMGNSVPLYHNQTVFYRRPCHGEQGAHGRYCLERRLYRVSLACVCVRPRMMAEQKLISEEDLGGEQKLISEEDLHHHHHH
procedure.text: SPR Biacore, antibody captured, 37C
Some binders, each annotated with its measured koff.
Respond with the bare value in s⁻¹.

Solved entries (count: 2):
H4H10907P (antibody, human IgG4, V domains shown, H4H prefix = human IgG4 Fc) VH: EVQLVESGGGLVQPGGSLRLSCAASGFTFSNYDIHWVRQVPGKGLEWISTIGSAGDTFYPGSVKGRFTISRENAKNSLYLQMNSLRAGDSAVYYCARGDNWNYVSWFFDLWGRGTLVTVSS VL: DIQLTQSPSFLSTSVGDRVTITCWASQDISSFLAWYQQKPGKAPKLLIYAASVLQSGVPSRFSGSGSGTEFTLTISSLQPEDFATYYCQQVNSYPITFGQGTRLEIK : 0.0204
H4H10897P (antibody, human IgG4, V domains shown, H4H prefix = human IgG4 Fc) VH: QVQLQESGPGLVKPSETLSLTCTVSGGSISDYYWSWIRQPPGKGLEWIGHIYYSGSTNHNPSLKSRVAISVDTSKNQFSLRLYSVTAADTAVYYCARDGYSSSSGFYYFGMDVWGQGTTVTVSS VL: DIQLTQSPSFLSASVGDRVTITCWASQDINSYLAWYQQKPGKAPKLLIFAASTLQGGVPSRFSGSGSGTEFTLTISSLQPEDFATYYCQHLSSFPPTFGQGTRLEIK : 0.00601

Then this binder:
Consider the binder H4H10905P (antibody, human IgG4, V domains shown, H4H prefix = human IgG4 Fc) VH: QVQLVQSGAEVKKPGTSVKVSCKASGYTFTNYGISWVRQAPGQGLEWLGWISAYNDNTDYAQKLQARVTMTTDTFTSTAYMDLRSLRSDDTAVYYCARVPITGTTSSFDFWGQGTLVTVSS VL: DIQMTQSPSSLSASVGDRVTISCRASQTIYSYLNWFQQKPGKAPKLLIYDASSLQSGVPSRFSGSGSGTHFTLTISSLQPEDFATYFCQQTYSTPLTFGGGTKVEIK and give its measured koff.
0.000181
